Tested on: Staphylococcus aureus
assayName: Bactericidal activity against Staphylococcus aureus MTCC 96 after 24 hrs
Format: functional
conditions: MTCC 96, 24 h
The following molecules are shown together with reported MBC values.

The cases that follow already have their MBC on record.
Exam item: Lab note: need MBC for "COc1ccc(Cn2cc(CNC(=O)c3ccc([N+](=O)[O-])o3)nn2)cc1" on Staphylococcus aureus, anyone have it?
Marked response: 75 µg/mL

Exam item: Lab note: need MBC for "O=C(NCc1cn(Cc2ccc([N+](=O)[O-])cc2)nn1)c1ccc([N+](=O)[O-])o1" on Staphylococcus aureus, anyone have it?
Marked response: > 150 µg/mL

Exam item: Lab note: need MBC for "O=C(NCc1cn(Cc2cccc([N+](=O)[O-])c2)nn1)c1ccc([N+](=O)[O-])o1" on Staphylococcus aureus, anyone have it?
Marked response: > 150 µg/mL

Exam item: Lab note: need MBC for "O=C(NCc1cn(Cc2ccc(F)c(Cl)c2)nn1)c1ccc([N+](=O)[O-])o1" on Staphylococcus aureus, anyone have it?
Marked response: 18.8 µg/mL

Exam item: Lab note: need MBC for "O=C(O)c1cn(C2CC2)c2cc(N3CCNCC3)c(F)cc2c1=O" on Staphylococcus aureus, anyone have it?
Marked response: 0.58 µg/mL

New cases:
Exam item: Lab note: need MBC for "COc1cc(Cn2cc(CNC(=O)c3ccc([N+](=O)[O-])o3)nn2)ccc1F" on Staphylococcus aureus, anyone have it?
Marked response: > 150 µg/mL

Exam item: Lab note: need MBC for "COc1ccc(Cn2cc(CNC(=O)c3ccc([N+](=O)[O-])o3)nn2)cc1O" on Staphylococcus aureus, anyone have it?
Marked response: 75 µg/mL

Exam item: Lab note: need MBC for "COc1ccc(Cn2cc(CNC(=O)c3ccc([N+](=O)[O-])o3)nn2)cc1[N+](=O)[O-]" on Staphylococcus aureus, anyone have it?
Marked response: > 150 µg/mL

Exam item: Lab note: need MBC for "COc1cc(Cn2cc(CNC(=O)c3ccc([N+](=O)[O-])o3)nn2)ccc1O" on Staphylococcus aureus, anyone have it?
Marked response: 18.8 µg/mL

Exam item: Lab note: need MBC for "O=C(NCc1cn(Cc2ccc(C(F)(F)F)cc2)nn1)c1ccc([N+](=O)[O-])o1" on Staphylococcus aureus, anyone have it?
Marked response: > 150 µg/mL

Exam item: Lab note: need MBC for "COc1ccc(Cn2cc(CNC(=O)c3ccc([N+](=O)[O-])o3)nn2)cc1F" on Staphylococcus aureus, anyone have it?
Marked response: > 150 µg/mL
